# tested.on: mouse TREK-1 (mTREK-1t) (Mus musculus, UniProt P97438)
# Construct: (mTREK-1t) by Capital Biosciences (Rockville, Md.)
# Sequence (P97438 with tags, fused parts or gaps limits assumed): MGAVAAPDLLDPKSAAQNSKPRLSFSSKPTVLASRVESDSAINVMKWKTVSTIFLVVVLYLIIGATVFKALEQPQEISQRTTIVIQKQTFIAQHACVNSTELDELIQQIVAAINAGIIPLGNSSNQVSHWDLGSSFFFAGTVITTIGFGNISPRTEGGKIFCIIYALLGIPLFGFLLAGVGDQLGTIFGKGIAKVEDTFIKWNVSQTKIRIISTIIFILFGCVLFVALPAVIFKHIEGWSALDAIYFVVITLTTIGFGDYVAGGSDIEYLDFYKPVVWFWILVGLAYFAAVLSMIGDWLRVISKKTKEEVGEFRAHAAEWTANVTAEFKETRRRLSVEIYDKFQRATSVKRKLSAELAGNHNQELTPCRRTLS
# protocol.notes: FLIPR membrane potential assay in HEK-293 cells stably transfected with mTREK-1t
# Format: cell-based
# assay.setup: HEK293, Sample Conc. 0.0010%; read-out: Activity Level (percentage of activity relative to 100% with 50 mM potassium nitrate)
Where a name gives a salt, the structure may show the parent alone.
For each entry below, report its activation at 0.001 % value.
Numbers only, in %.

Some entries whose results are on file:
> print(dat)
                                   compound               endpoint  number
1  CCCOC(=O)CCCCC(=O)OCCC [Dipropyl Adipate]  activation at 0.001 %       0
2  CCCCOC(=O)CC(CC(=O)OCCCC)(OC(C)=O)C(=O)OCCCC [Acetyl Tributyl Citrate]  activation at 0.001 %    0.48
3  CC(C)OC(=O)CCCCC(=O)OC(C)C [Diisopropyl Adipate]  activation at 0.001 %    1.38

Turning now to a further compound:
Please report the recorded activation at 0.001 % for CCOC(=O)CC(O)(CC(=O)OCC)C(=O)OCC [Triethyl Citrate] . 1.7

---

# tested.on: mouse TREK-1 (mTREK-1t) (Mus musculus)
# Construct: (mTREK-1t) by Capital Biosciences (Rockville, Md.)
# protocol.notes: FLIPR membrane potential assay in HEK-293 cells stably transfected with mTREK-1t
# Type: cell-based
# assay.setup: HEK293, Sample Conc. 0.0021%; read-out: Activity Level (percentage of activity relative to 100% with 50 mM potassium nitrate)
Where a name gives a salt, the structure may show the parent alone.
For each entry below, report its activation at 0.0021 % value.
Number first, unit second: that is the form wanted.

Some entries whose results are on file:
> print(dat)
                                   compound                               tested.on  result
1  CCOC(=O)CC(O)(CC(=O)OCC)C(=O)OCC [Triethyl Citrate]  mouse TREK-1 (mTREK-1t) (Mus musculus)   2.98%
2  CCCCOC(=O)CC(CC(=O)OCCCC)(OC(C)=O)C(=O)OCCCC [Acetyl Tributyl Citrate]  mouse TREK-1 (mTREK-1t) (Mus musculus)   3.06%
3  CC(C)OC(=O)CCCCC(=O)OC(C)C [Diisopropyl Adipate]  mouse TREK-1 (mTREK-1t) (Mus musculus)   3.43%

Turning now to a further compound:
Please report the recorded activation at 0.0021 % for CCCOC(=O)CCCCC(=O)OCCC [Dipropyl Adipate] . 0%

---

# tested.on: mouse TREK-1 (mTREK-1t) (Mus musculus)
# Construct: (mTREK-1t) by Capital Biosciences (Rockville, Md.)
# protocol.notes: FLIPR membrane potential assay in HEK-293 cells stably transfected with mTREK-1t
# Format: cell-based
# assay.setup: HEK293, Sample Conc. 0.0330%; read-out: Activity Level (percentage of activity relative to 100% with 50 mM potassium nitrate)
Counter-ions that a name gives are not always drawn.
endpoint: activation at 0.033 % (%)
One number for each entry, in %.

Some entries whose results are on file:
> print(dat)
                                   compound  number
1  CCCCOC(=O)CC(CC(=O)OCCCC)(OC(C)=O)C(=O)OCCCC [Acetyl Tributyl Citrate]      24
2  CCOC(=O)CC(O)(CC(=O)OCC)C(=O)OCC [Triethyl Citrate]    17.2
3  CCCOC(=O)CCCCC(=O)OCCC [Dipropyl Adipate]    12.2

Please report the recorded activation at 0.033 % for CC(C)OC(=O)CCCCC(=O)OC(C)C [Diisopropyl Adipate] . 30.4

---

For each entry below, report its activation at 0.0167 % value.
# tested.on: mouse TREK-1 (mTREK-1t) (Mus musculus)
# Construct: (mTREK-1t) by Capital Biosciences (Rockville, Md.)
# Sequence (P97438 with tags, fused parts or gaps limits assumed): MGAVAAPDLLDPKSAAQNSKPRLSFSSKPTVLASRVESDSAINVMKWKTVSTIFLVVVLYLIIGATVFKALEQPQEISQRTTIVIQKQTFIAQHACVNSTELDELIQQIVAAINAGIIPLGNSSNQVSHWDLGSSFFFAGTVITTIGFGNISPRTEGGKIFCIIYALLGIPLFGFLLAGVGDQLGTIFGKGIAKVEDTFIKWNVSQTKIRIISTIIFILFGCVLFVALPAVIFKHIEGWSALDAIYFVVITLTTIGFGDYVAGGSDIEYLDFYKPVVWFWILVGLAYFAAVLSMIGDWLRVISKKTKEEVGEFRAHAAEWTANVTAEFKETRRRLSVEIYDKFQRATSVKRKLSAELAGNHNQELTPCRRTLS
# protocol.notes: FLIPR membrane potential assay in HEK-293 cells stably transfected with mTREK-1t
# Format: cell-based
# assay.setup: HEK293, Sample Conc. 0.0167%; read-out: Activity Level (percentage of activity relative to 100% with 50 mM potassium nitrate)
Structures can show the parent of a compound that is named as a salt.

Some entries whose results are on file:
> print(dat)
                                   molecule                endpoint  result
1  CCCCOC(=O)CC(CC(=O)OCCCC)(OC(C)=O)C(=O)OCCCC [Acetyl Tributyl Citrate]  activation at 0.0167 %   14.1%
2  CCOC(=O)CC(O)(CC(=O)OCC)C(=O)OCC [Triethyl Citrate]  activation at 0.0167 %   13.4%
3  CC(C)OC(=O)CCCCC(=O)OC(C)C [Diisopropyl Adipate]  activation at 0.0167 %   14.8%

Turning now to a further molecule:
Please report the recorded activation at 0.0167 % for CCCOC(=O)CCCCC(=O)OCCC [Dipropyl Adipate] . 2.66%

---

For each entry below, report its activation at 100 µM value.
# tested.on: mouse TREK-1 (mTREK-1t) (Mus musculus, UniProt P97438)
# Construct: (mTREK-1t) by Capital Biosciences (Rockville, Md.)
# Sequence (P97438 with tags, fused parts or gaps limits assumed): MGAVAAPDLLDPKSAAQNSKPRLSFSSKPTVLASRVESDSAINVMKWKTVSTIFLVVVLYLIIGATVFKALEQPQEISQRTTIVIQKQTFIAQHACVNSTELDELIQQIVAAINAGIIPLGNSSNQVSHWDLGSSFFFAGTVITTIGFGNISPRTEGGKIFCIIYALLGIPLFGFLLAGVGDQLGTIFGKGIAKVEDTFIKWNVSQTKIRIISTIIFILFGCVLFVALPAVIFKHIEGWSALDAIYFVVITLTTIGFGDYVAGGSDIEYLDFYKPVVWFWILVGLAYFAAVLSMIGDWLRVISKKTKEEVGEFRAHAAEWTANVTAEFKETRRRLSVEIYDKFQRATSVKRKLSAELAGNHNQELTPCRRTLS
# protocol.notes: FLIPR membrane potential assay in HEK-293 cells stably transfected with mTREK-1t
# Type: cell-based
# assay.setup: HEK293, sample concentration 100 μM; relative to 50 mM potassium nitrate; read-out: Fluorescence per Sample concentration (percent activity relative to potassium nitrate)
Numbers only, in %.

> print(dat)
              molecule  number
1  CC(C)CC=C(C=O)C(C)C    21.1

Could I get activation at 100 µM for every one of these entries?
1. CC(C)C=C(C=O)c1ccccc1
2. CCCCC(CC)CCC(=O)O (stereo not shown)
3. CCCCCC(C)CCC(=O)O (stereo not shown)

[27.1, 44.6, 38.5]

---

For each entry below, report its activation at 0.0083 % value.
# tested.on: mouse TREK-1 (mTREK-1t) (Mus musculus)
# Construct: (mTREK-1t) by Capital Biosciences (Rockville, Md.)
# Sequence (P97438 with tags, fused parts or gaps limits assumed): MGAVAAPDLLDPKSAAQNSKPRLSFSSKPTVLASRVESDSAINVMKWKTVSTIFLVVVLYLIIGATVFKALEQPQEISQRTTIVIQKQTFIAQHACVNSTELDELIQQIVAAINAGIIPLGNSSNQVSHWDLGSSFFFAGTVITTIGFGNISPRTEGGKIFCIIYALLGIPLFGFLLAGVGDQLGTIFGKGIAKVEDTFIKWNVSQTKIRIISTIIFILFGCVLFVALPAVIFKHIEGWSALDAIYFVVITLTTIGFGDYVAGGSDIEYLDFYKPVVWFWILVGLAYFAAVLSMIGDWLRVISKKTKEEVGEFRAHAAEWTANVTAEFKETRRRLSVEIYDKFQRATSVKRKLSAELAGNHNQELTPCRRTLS
# protocol.notes: FLIPR membrane potential assay in HEK-293 cells stably transfected with mTREK-1t
# Assay type: cell-based
# assay.setup: HEK293, Sample Conc. 0.0083%; read-out: Activity Level (percentage of activity relative to 100% with 50 mM potassium nitrate)
Counter-ions that a name gives are not always drawn.
Number first, unit second: that is the form wanted.

Some entries whose results are on file:
> print(dat)
                                   compound                endpoint  result
1  CCOC(=O)CC(O)(CC(=O)OCC)C(=O)OCC [Triethyl Citrate]  activation at 0.0083 %   6.17%
2  CCCCOC(=O)CC(CC(=O)OCCCC)(OC(C)=O)C(=O)OCCCC [Acetyl Tributyl Citrate]  activation at 0.0083 %   5.89%
3  CCCOC(=O)CCCCC(=O)OCCC [Dipropyl Adipate]  activation at 0.0083 %   0.51%

Turning now to a further compound:
Please report the recorded activation at 0.0083 % for CC(C)OC(=O)CCCCC(=O)OC(C)C [Diisopropyl Adipate] . 6.59%
